test system: MS2 coat protein; assay: apparent KD of MS2 coat protein; designed switch direction (-1 OFF switch, 1 ON switch): -1; higher = weaker reporter binding; conditions: input ligand: FMN 200 uM
measurement-type: apparent KD of MS2 coat protein (µM)
One number for each entry, in µM.

Please review the following examples before continuing.
residue-sequence | tested-on | result-unit | apparent KD of MS2 coat protein
UAAACAAGCUAAAGAUUCUACAUGAGGAUCACCCAUGUGCUCGUCUUAUAAGGUACUGUGACGAAAGUCACGGUACC [JL TOV1 3.07] (Eterna round: R97, puzzle: Sensor, turn-off variant 1) | MS2 coat protein | µM | 0.0179
CCUAGUUGGUAAGGAUAUCCUACACUAUUCUGACCCGUGCAAGCUACAUGAGGAUCACCCAUGUGGGAGAAGGUGCGUCAACGU [Design 10] (Eterna round: R96, puzzle: Exclusion NG 2) | MS2 coat protein | µM | 0.0213
CGGUGUAGAGGAUAUACGUGAAUAUAAGAACAUAAUAAUUAACAUGAGGAUCACCCAUGUAGAAGGCUAUAGCG [JR_Ex2_Sub081] (Eterna round: R97, puzzle: Exclusion 2) | MS2 coat protein | µM | 0.0343
GGACGGUUAGUCAGGAUAUGCUCUACCUCGGUAGAGCAGAAGGGACAUGAGGAUCACCCAUGUGAAAACUGUUC [Omei Ex4B B37] (Eterna round: R97, puzzle: Brourd's mod of Exclusion 4) | MS2 coat protein | µM | 0.0302
GCACGGAGUGUAGGAUAUCUGUGCGAUUAGCUCAGAGAAGGACAUGAGGAUCACCCAUGUGUGUUCCAAUACUCAAAUCCGUGC [Eli exng1 - 064] (Eterna round: R96, puzzle: Exclusion NG 1) | MS2 coat protein | µM | 0.71

Provide apparent KD of MS2 coat protein for all items below, preserving their order.
1. CUGUGCACGCUGCGGUCCUACAUGAGGAUCACCCAUGUGGUCUGGUGGCGUGGGUCACCGGACUUGGCUCGUCUUGU [salish99_S_TOV1_R5_064] (Eterna round: R97, puzzle: Sensor, turn-off variant 1)
2. AACCUGAGGCAAAGCUUUAGGUGUACAUGAGGAUCACCCAUGUAGGAUAUGGUAGGCAAAGCUUACCAGAAGGACAUUGGCGUA [Mat - Exclusion NG 3 - Mod of JL - D41] (Eterna round: R96, puzzle: Exclusion NG 3)
3. GUCACCUCGGUGACAAAGCACAUGAGGAUCACCCAUGUAUGUGCUUGGAAACAAGCAUUUUGUUCGUCUUAUAAGAA [same principle] (Eterna round: R96, puzzle: Sensor v2, turn-off variant)
4. GGUAAGUGUGACUUGGGUGACAUGAGGAUCACCCAUGUCACAAGCUUGUUGCUCGCCUUGUAAUUAACCCAUGUCAC [LRO Sensor-off var1-28 mod of Stov1-13-A1 by Brourd] (Eterna round: R97, puzzle: Sensor, turn-off variant 1)
5. ACAUGAGGAUCACCCAUGUGCACGUAAUGGCUCAUGUAGAGUGAGGAUAUGCGUGGCGAACUCGCGCAGAAGGCACAAGACUGG [Deportation 19 - Jieux - Exclusion NG 3] (Eterna round: R96, puzzle: Exclusion NG 3)
6. CUUUCGUGAGGAUAUGUGGCUUCGAUCGUGAGAUCGAGGCAACAGAAGGCACAUGAGGAUCACCCAUGUUCCUC [salish99_ex4_r4_207] (Eterna round: R97, puzzle: Exclusion 4)

A)
1. 0.0357
2. 0.418
3. 0.0227
4. 0.0173
5. 0.0888
6. 0.546

Provide apparent KD of MS2 coat protein for all items below, preserving their order.
1. UCGACGUCGUCAGGAUAUAGUUUUAAUGUCAUGCUUUUGUUCGUACAUGAGGAUCACCCAUGUGGCUAGAAGGGACUAAAGAUU [JR_ExcNG2_Sub014] (Eterna round: R96, puzzle: Exclusion NG 2)
2. UGCCUAGCAGGAUAUGCCCGGGAUAACAUGAGGAUCACCCAUGUGACCGAUUGAUAUCCUGCAGAAGGGCUAGGGA [JL-EX5-4.10 ViennaUCT mod] (Eterna round: R97, puzzle: Exclusion 5)
3. AUUAUACAUGUAGGAUAUCUGCACGUUUAGUGCAGAGAAGGACAUGAGGAUCACCCAUGUAGAUCAAUAAUAAUUAAUUUAAUU [ENG1/6-B2] (Eterna round: R96, puzzle: Exclusion NG 1)

A)
1. 0.0229
2. 0.0621
3. 0.889

====

tested on: K4 kissing-loop RNA reporter; test: apparent KD of K4 kissing-loop reporter; higher = weaker reporter binding; details: Eterna round: R107; input ligand: arginine 13.2 mM
Returns one of t or f; t when apparent KD of K4 kissing-loop reporter is >= 400 nM.

Worked examples follow.
residue-sequence | tested-on | group-label
AAGUGUGUGGCGGCCGCCACUAGAAUCCAGUGAUGUUGGAGUUAUCAAAUAAAUGAUAAUCAACAUAGGACCGGGCCAUAUAGAA [Same State - Tryptophan B (Freestyle 4)] | K4 kissing-loop RNA reporter | t
AAGUGAUGUUGUAGUGAUGUUGUGAUGUUGCAGGAUAUAUAGUGAUGUAGAAGGGUAUGUGCAGUUUUAUUUUUUGAGUGUUGAU [ttytmullin] | K4 kissing-loop RNA reporter | f
CUUACCCAUCGGAUGGAUCAACUGCACACGAAGGAUAUACACACGGGUAGAAGGUCGGGAUUCCAGUGAUGUUGGAUGGUACGAC [theeternabot_exclusion_KL_FMN_A_29] | K4 kissing-loop RNA reporter | f

Attention now shifts to the item below.
Q) Exam item: decide whether the reported apparent KD of K4 kissing-loop reporter for AAACUUGCAGUGAUGUUGCAAGUAGGUGAUACCAGCAUCGAAAGAUGCCCUUGGCAGCACCAUCUUGUAACAUAGGUAUCACCAA [(H1)-(H2)-(T1)-(T2)-(H)'-(T)'_Design4] is at least 400 nM.
A) f

====

test system: K4 kissing-loop RNA reporter; test: apparent KD of K4 kissing-loop reporter; higher = weaker reporter binding; conditions: Eterna round: R107; input ligand: tryptophan 2.4 mM;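 also: bound reporter read as fluorescence of individual clusters on recovered sequencing chips by microscopy, with normalized cluster intensities fitted with a binding model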
measurement-type: apparent KD of K4 kissing-loop reporter (nM)
One number for each entry, in nM.

residue-sequence | reported-result
UGUCGAGUGAUGUUCGAUGUGGUGCAUGCAGAGGAUAUAGGGUGGGCUAGAAGGCUGAAAAGUGCUUCGAGUGAUGUUCGAAGAU [Exclusion FMN A GF9] | 114
UCCUGCAAUCGACCACGAAAGUGGAUUGAUACCAGAGUCGAAAGACUCCCUUGGCAGCGAGUGAUGUUCGAAGCAGGUAAAUAAA | 426
AACAGCAAUGCGGCCGCCACUUCGAGGUCAGUGAUGUUGACAGAAUUAAAUAAAGAUCCCAAGAGGAGGACCGGGCAGUGCUGUU [whbob_SS_Tryp_B_t24] | 416
UGUAUGGACUGAAGGAGCGCUAGGUAUGUGAGUGAUGUUCAUAUAAAUGUAUAAAGGGUUUGGCAGGUAGGUCGCAGUCCAUACU [KL-SSArg B6] | 188

Provide apparent KD of K4 kissing-loop reporter for all items below, preserving their order.
1. CUUGAUCGAGGAAGGAGCGGGCCGUCAUUGAGCGCAGUGAUGUUGCGGUCGACUAGUCGAGCCCAGGUAGGUCGCCUGGAGUAAG [Xeveis]
2. GUAGCACUCGGUAGUGAUGUUAUCGAGGACAAGGAUAUCAUCUCAAUGAGAAGGUGUCCUUGAUAACAGCUACGGGAAUAUCCCA [Omei KL FMN A Exc D v4]
3. UGCGGUAGUGAUGUUACCUCAUUAUACUAGCGAGGACCGGUACGGCCGCCACUCGACUUCCUCCACGCCUAGGCCUCUACGUUCA [theeternabot_sameState_KL_Trp_A_36]
4. GUUACGCAUGGAAGGAGCGCUCUCCGGCUUAAUAACACAGUGAUGUUGUGAAUUUGCCGAAAGCAGGUAGGUCGCCAUGUGUAAC [Ex Arginine B K4 10]

A)
[192, 127, 98.2, 413]

====

test system: MS2 coat protein; assay: apparent KD of MS2 coat protein; designed switch direction (-1 OFF switch, 1 ON switch): -1; higher = weaker reporter binding; conditions: Eterna round: R95; input ligand: microRNA oligo, concentration not stated
measurement-type: apparent KD of MS2 coat protein

Please review the following examples before continuing.
residue-sequence | reported-result
GAGAAGGUAGGAUAUACGAAUAAAUAGGGUAGUAAUAAUACACAUGAGGAUCACCCAUGUAGAAGGACCAAGAG [Mat - Exclusion 2 - Mod of my Tesla design - D39] (puzzle: Exclusion 2) | 22.8 nM
UUUUUGUGAGGAUAUCAGUAGUAAAAAAAUAAAAUUACUACUGAGAAGGCACAUGAGGAUCACCCAUGUUCUUU [salish99_ex4_r3_012] (puzzle: Exclusion 4) | 18.4 nM
CUUCACCCACCAGAGCUCACCCACAUACCAGCUCUGGUGACAUGAGGAUCACCCAUGUUUUUUGCCCGUCUUAUCUU [Intibima] (puzzle: Sensor v3, turn-off variant 2) | 189 nM
CUCCUCAUGACGCCCAACCACAUGAGGAUCACCCAUGUGCAGGCUUUUUGUCGUCUUAUAAUAAAACCGAGGAUGCG [Edusveti] (puzzle: Sensor v3, turn-off variant 1) | 49.4 nM

API: the following record is the query input.
Q) // returns reported apparent KD of MS2 coat protein for input GGUGCGUUUGUGAGGAUAUGCUGGUCCUUGGUUCGGCAGAAGGCACAUGAGGAUCACCCAUGUGGUGUCGUUCC [salish99_Bmod_Ex4_047] (puzzle: Brourd's mod of Exclusion 4)
A) 13.9 nM
